Tested on: S. aureus ATCC 29213
PROTOCOL_NOTES: MIC determination, S. aureus ATCC 29213
Format: cell-based, Staphylococcus aureus
CONDITIONS: Table 1
Provide the reported MIC S. aureus ATCC 29213 of each item.
Give the value, in units of micrograms per ml, as a plain number.

// query Consider the compound shown here: Oc1cccc2cccnc12 [Compound 97, 8-hydroxyquinoline] What is its recorded MIC S. aureus ATCC 29213?
// result 2

// query Also need Oc1cccc2cccnc12 [Compound 76, 8-hydroxyquinoline] , thanks.
// result 2

// query Same lookup for Oc1cccc2cccnc12 [Compound 38, 8-hydroxyquinoline] , please.
// result 1

// query How about Oc1cccc2cccnc12 [Compound 54, 8-hydroxyquinoline] ?
// result 2

// query Ok, now Oc1cccc2cccnc12 [Compound 84, 8-hydroxyquinoline]
// result 2

// query And for Oc1cccc2cccnc12 [Compound 60, 8-hydroxyquinoline] ?
// result 2

// query Now this one: Oc1cccc2cccnc12 [Compound 55, 8-hydroxyquinoline]
// result 2

// query Moving on to the next compound: Oc1cccc2cccnc12 [Compound 46, 8-hydroxyquinoline]
// result 1

// query // same read-out, input: Oc1cccc2cccnc12 [Compound 63, 8-hydroxyquinoline]
// result 2

// query What about Oc1cccc2cccnc12 [Compound 78, 8-hydroxyquinoline] ?
// result 2
